The reported measurements were obtained from PubChem BioAssay (NCI).

System: SR leukemia
PROTOCOL_NOTES: NCI-60 one-dose screen, 48 h (100 = growth as untreated, 0 = no growth, -100 = all killed)
SETUP_CONDITIONS: 10 µM unless noted
Compounds without any hit were thinned out: in the full panel of roughly 83,000, 20% have a hit.
Some compounds, each annotated with its measured growth.
Record the value in %, omitting the unit from your answer.

These recorded examples may help you get a feel for the data.
In [3]: df
Out[3]:
                                   compound  endpoint_name  scale_unit  result
0                              OCCNc1ccccc1         growth           %    93.2
1                 O=C(O)c1c[nH]c2ccccc2c1=O         growth           %    99.9
2   Cc1ccc2nc(-c3ccc(N=Cc4ccccc4O)cc3)sc2c1         growth           %    88.8
3                CCCCCCCCCc1ccc(OC(C)=O)cc1         growth           %     102
4    CCCCCCCCCCCCCCCCOc1ccccc1NC(=O)CC(C)=O         growth           %     107
5  Nc1ncnc2c1ncn2C1OC(CO)C2OC21 (configuration not stated)         growth           %     112
6      Cn1/c(=N\N=C\c2ccccc2OCCO)sc2ccccc21         growth           %      89
7       Clc1ccc(-c2noc(/C=C\c3ccccc3)n2)cc1         growth           %    97.8

Query: Find the recorded growth belonging to `O=S(=O)(OCCOS(=O)(=O)c1ccccc1)c1ccccc1` and report it.
Response: 93.7

Query: Item: `O=C(O)c1ccc([N+](=O)[O-])cc1S(=O)(=O)O`
Response: 110

Query: Continue with COc1ccc(C2CC(c3ccccc3)=Nc3ccccc3S2)cc1 (configuration not stated)
Response: 49

Query: Same question for COC1CC(OC(=O)c2ccc([N+](=O)[O-])cc2)C(COC(=O)c2ccc([N+](=O)[O-])cc2)O1 (configuration not stated) please.
Response: 85.9

---

Test system: HT29 colon
PROTOCOL_NOTES: NCI-60 one-dose screen, 48 h
SETUP_CONDITIONS: 10 µM unless noted
Compounds without any hit were thinned out: in the full panel of roughly 83,000, 20% have a hit. Activity calls are given as the source filed them. How the source made its calls: active means growth percent below 10; inactive means the rest.
Please state which outcome applies, choosing from YES for active, NO for inactive

Study these solved cases before continuing.
>>> print(df.to_string())
                                   compound  label_class
0           S=C(Sc1ccc(Cl)cc1)Sc1ccc(Cl)cc1          YES
1      Nc1nc2nnc(-c3ccccc3)c(-c3ccccc3)n2n1           NO
2                               CCOC(=O)CNC           NO
3  C[C@H](CCC[C@H](C)OS(=O)(=O)c1ccccc1)OS(=O)(=O)c1ccccc1           NO

Query: GET /call?item= `CCC(=O)C1C(=O)c2ccccc2C1=O` returns the recorded outcome of this test.
Response: NO

Query: Now consider CCC(C)c1c(N)n(S(=O)(=O)c2ccc(C)cc2)oc1=O (stereo unspecified) .
Response: NO

Query: For O=C1NCC2CCCC1C2 (stereo unspecified) then?
Response: NO

Query: Let us now turn to `N#C/C(=C\c1ccc(C#N)cc1)C(=O)c1ccccc1`
Response: NO

Query: Same question, OCC1OC(n2ccc3c2ncn2ncnc32)C(O)C1O (stereo unspecified) this time
Response: NO
